Measured growth, listed per entry.
- System: DU-145 prostate
- protocol.text: NCI-60 one-dose screen, 48 h (100 = growth as untreated, 0 = no growth, -100 = all killed)
- experimental.parameters: 10 µM unless noted
About 83,000 compounds went through this panel and 20% of them were active in at least one assay; those are over-represented in the sample as a whole. Active and inactive are the calls of the source. The calls were made as follows: active = growth percent below 10; inactive = the rest.

molecule_smiles=COc1ccc(-n2nc(C)c3c(Nc4ccc(NC(=O)Nc5ccc(Cl)c(C(F)(F)F)c5)cc4)ncnc32)cc1 quantity=growth reading="23.8% (inactive)"

Inquiry: Which growth is reported for this molecule? CC1=C[C@H]2c3c(c(O)c(O)c4oc5cc(O)ccc5c(=O)c34)[C@H](c3cc(O)c(O)c4oc5cc(O)ccc5c(=O)c34)[C@H]2C(C)(C)C1
Reply text: 34.4% (inactive)

Inquiry: Which growth is reported for this molecule? OCCNc1nccc(N2CCN(c3ccnc4cc(Cl)ccc34)CC2)n1
Reply text: 98.8% (inactive)

Inquiry: Which growth is reported for this molecule? O=C1/C(=C/c2ccc3c(c2)OCO3)SC(=S)N1CCc1ccc(O)cc1
Reply text: 52.3% (inactive)

Inquiry: Which growth is reported for this molecule? O=C(N/N=C/c1c[nH]c2ccccc12)c1cc(-c2ccccc2)on1
Reply text: 100% (inactive)

Inquiry: Which growth is reported for this molecule? CSc1nc(NCCN2CCOCC2)c(C#N)c(-c2cccc([N+](=O)[O-])c2)n1
Reply text: 106% (inactive)

---

- System: UACC-257 melanoma
- protocol.text: NCI-60 one-dose screen, 48 h (100 = growth as untreated, 0 = no growth, -100 = all killed)
- experimental.parameters: 10 µM unless noted
This is part of a sample that, as a whole, favours compounds with a hit. Of some 83,000 tested, about 20% had one in any assay.
quantity: growth (%)
Value expressed in %; do not type the unit.

molecule_smiles=COc1cc2c(cc1O)CC[C@@H]1[C@@H]2CC[C@]2(C)[C@@H](OCCN(C)C)CC[C@@H]12 reading=-18.2

Inquiry: Which growth is reported for this compound? O=c1oc2c(C(F)(F)F)cccc2cc1-c1csc(Nc2ccc(OCCF)cc2)n1
Reply text: 55.2

Inquiry: Which growth is reported for this compound? Cc1nc2c3c(-c4ccccc4)c(-c4ccccc4)oc3ncn2n1
Reply text: 106

Inquiry: Which growth is reported for this compound? C=CC(=O)Nc1cccc(-c2nc(SC)nc(Nc3ccccc3OC)c2C#N)c1
Reply text: 57.5

---

- Tested on: HOP-62 NSCLC
- protocol.text: NCI-60 one-dose screen, 48 h (100 = growth as untreated, 0 = no growth, -100 = all killed)
- experimental.parameters: 10 µM unless noted
The panel holds about 83,000 compounds, 20% with a hit somewhere; the sample as a whole holds those more often.
Measured growth, listed per entry.
Value expressed in %; do not type the unit.

compound=Cc1cc(Nc2ccc(C)c(Cl)c2)n2nc(C(F)(F)F)nc2n1 reading=-17.2
compound=CC1=C[C@H]2c3c(c(O)c(O)c4oc5cc(O)ccc5c(=O)c34)[C@H](c3cc(O)c(O)c4oc5cc(O)ccc5c(=O)c34)[C@H]2C(C)(C)C1 reading=39.8
compound="Cc1ccc2c(C(C[N+](=O)[O-])c3ccco3)c(-c3ccccc3)[nH]c2c1 (stereo not given)" reading=24
compound=COc1ccc(C(=O)COc2ccc(/C=C3\COc4ccc(OC)cc4C3=O)cc2)cc1 reading=110
compound=Cc1cc(N2CCN(c3ccnc4cc(Cl)ccc34)CC2)nc(NC2CCCCC2)n1 reading=29.6

Inquiry: Which growth is reported for this compound? COc1ccc2c(c1)C(=O)/C(=C/c1cccnc1)CC2
Reply text: 97.5

Inquiry: Which growth is reported for this compound? Clc1ccc2c(NCCNc3nc(N4CCCCC4)nc4ccccc34)ccnc2c1
Reply text: -18.2

Inquiry: Which growth is reported for this compound? O=C1Nc2c(ccc(Cl)c2Cl)/C1=C\c1ccc(C(F)(F)F)cc1
Reply text: 87.3

Inquiry: Which growth is reported for this compound? CN1CCN(Cc2ccc(NC(=O)c3cncc(C#Cc4cncn5ccnc45)c3)cc2C(F)(F)F)CC1
Reply text: 81.4

Inquiry: Which growth is reported for this compound? O=c1cc(CSc2nnc(SCc3cc(=O)oc4c3ccc3ccccc34)o2)c2ccc3ccccc3c2o1
Reply text: 99.2
